The entries below come with measured λmax values attached.
- assay info: UV light absorption (λmax, log ε)
- Type: physicochemical
- condition details: 5 × 10^-6 M in ethanol
- Experimental: Each recorded UV absorption was restricted to the highest wave length. Fluorescence quantum yields of the dyes were determined for ethanol solutions with excitation at 450 and 460 nm by reference to acridine orange, .PHI.0.46, in ethanol; for the dye 7p the reference was R-6G, <P 0.90. […] Melting points were obtained from a Mel-Temp II device and were uncorrected. The solvent for ^1 H NMR spectra was chloroform-d with tetramethylsilane as an internal standard. […]
Report the figure along with its unit, number first.

Below: 2 molecules and their reported λmax.
CC1=[N+]2C(=Cc3c(-c4ccccc4)c(-c4ccccc4)c(C)n3[B-]2(F)F)C(c2ccccc2)=C1c1ccccc1 : 552 nm
CCC1=C(CC)C(C)=[N+]2C1=C(C)c1c(CC)c(CC)c(C)n1[B-]2(F)F : 521 nm

For this molecule ( CC1=C2C=C3CCCCC3=[N+]2[B-](F)(F)n2c1cc1c2CCCC1 ), measured λmax is 535 nm

For this molecule ( CC1=C2C3=C(CCC3)C(C)=[N+]2[B-](F)(F)n2c(C)c3c(c21)CCC3 ), measured λmax is 512 nm
